Tested on: T-47D
Assay: viability inhibition at highest dose (% inhibition); higher = more growth inhibition
Settings: 4-OH-tamoxifen in medium 1 µM; 72 h
Items are presented alongside their recorded viability inhibition at highest dose.
Lab note: write the figure by itself, no unit.

Record excerpt, results attached:
INSERT INTO results (compound, measured_on, quantitative_result) VALUES
  ('Cn1cc(C2=Nc3cc(NC(=O)C(N)C4CCCCC4)cc4c3C2=CNNC4=O)cn1 (stereo unspecified) (drug 10000 nM)', 'T-47D', 28.4),
  ('C/C(=C\c1csc(C)n1)[C@@H]1C[C@@H]2O[C@]2(C)CCC[C@H](C)[C@H](O)[C@@H](C)C(=O)C(C)(C)[C@@H](O)CC(=O)O1 [Patupilone (Epothilone B)] (drug 1000 nM)', 'T-47D', 8.65),
  ('Cc1[nH]c2ccccc2c1CCNCc1ccc(/C=C/C(=O)NO)cc1 [Panobinostat] (drug 1000 nM)', 'T-47D', 95.5),
  ('CC(C)n1nc(-c2ccc3oc(N)nc3c2)c2c(N)ncnc21 [INK128] (drug 1000 nM)', 'T-47D', 46.4),
  ('Cc1c(C(=O)Nc2ccc(N3C[C@@H](C)O[C@@H](C)C3)nc2)cccc1-c1ccc(OC(F)(F)F)cc1 [Erismodegib (NVP-LDE225)] (drug 10000 nM)', 'T-47D', 8.8),
  ('COc1cc([C@@H]2c3cc4c(cc3[C@@H](O[C@@H]3O[C@@H]5CO[C@@H](C)O[C@H]5[C@H](O)[C@H]3O)[C@H]3COC(=O)[C@H]23)OCO4)cc(OC)c1O [Etoposide] (drug 10000 nM)', 'T-47D', 15.7),
  ('Cc1cccc(-c2nn3c(c2-c2ccnc4ccc(C(N)=O)cc24)CCC3)n1 (drug 1000 nM)', 'T-47D', -3.66),
  ('N#Cc1ccc(COC[C@H]2O[C@@H](n3c(NCc4ccc(Cl)c(Cl)c4)nc4c(N)ncnc43)[C@H](O)[C@@H]2O)cc1 (drug 10000 nM)', 'T-47D', 29);

Please indicate recorded viability inhibition at highest dose of CN[C@@H]1C[C@H]2O[C@@](C)([C@@H]1OC)n1c3ccccc3c3c4c(c5c6ccccc6n2c5c31)C(=O)N[C@H]4O [UCN-01] (drug 10000 nM) measured with T-47D.
69.8

Please indicate recorded viability inhibition at highest dose of Nc1nc(F)nc2c1ncn2[C@@H]1O[C@H](CO)[C@@H](O)[C@@H]1O [Fludarabine] (drug 10000 nM) measured with T-47D.
-12.2

Please indicate recorded viability inhibition at highest dose of COc1c(C)cnc(Cn2cnc3c(Cl)nc(N)nc32)c1C [BIIB021] (drug 10000 nM) measured with T-47D.
51.5

Please indicate recorded viability inhibition at highest dose of Nc1ccn([C@@H]2O[C@H](CO)[C@@H](O)C2(F)F)c(=O)n1 [Gemcitabine] (drug 1000 nM) measured with T-47D.
7.44

Please indicate recorded viability inhibition at highest dose of NC(=O)Nc1cc(-c2cccc(F)c2)sc1C(=O)N[C@H]1CCCNC1 [AZD7762] (drug 1000 nM) measured with T-47D.
13.8

Please indicate recorded viability inhibition at highest dose of O=C1CCC(N2C(=O)c3ccccc3C2=O)C(=O)N1 (stereo unspecified) [Thalidomide] (drug 10000 nM) measured with T-47D.
10.3

Please indicate recorded viability inhibition at highest dose of COc1cccc2cc(-c3nc([C@H]4CC[C@H](C(=O)O)CC4)n4ncnc(N)c34)[nH]c12 [OSI-027] (drug 10000 nM) measured with T-47D.
42.7

Measured values drawn from the supplement of paper PMC4932681 for this set.
